// values below are reported melting point

COMPOUND | melting point
O=C1NC(=O)C(CCc2ccc(O)cc2)S1 (stereo not drawn) | 175 to 176 °C
CN(Cc1ccc(NC(=O)C2=Cc3cc(-c4ccc(N5CCCCC5)cc4)ccc3CCC2)cc1)C1CCOCC1 | 170 to 171 °C
CC(=O)N1CCN(CCSc2ccnc(CSc3nc4ccccc4[nH]3)c2C)CC1 | 129 to 131 °C

---

// values below are reported melting point

COMPOUND | melting point
COc1ccc(O)cc1[N+](=O)[O-] | 78 to 80 °C
Cc1nnc(-c2ccc3occ(-c4cccc(C(F)(F)F)c4)c3c2)o1 | 126 to 127 °C
CCCCCCOCCOc1ccc(-c2ccc3c(c2)C=C(C(=O)Nc2ccc(CN(C)C4CCOCC4)cc2)CCS3(=O)=O)cc1 | 180 to 182 °C
CC(=O)Nc1ccc(Sc2ccccc2)cc1 | 142 to 144 °C
O=C(Nc1cc2c(cc1C(=O)c1ccccc1)OCO2)c1ccccc1 | 195 to 197 °C
COc1ccc2c(c1)NC(C)(C)C=C2C | 67 to 69 °C
CC(C)Nc1nc2ccccn2c(=O)c1-c1ccc(NC2CCN(C(=O)OC(C)(C)C)C2)cc1 (stereo not drawn) | 210 to 212 °C
CCN(C(=O)C(NS(=O)(=O)c1c(C)cc(C)cc1C)C(C)C)c1ccccc1 (stereo not drawn) | 156 to 158 °C
CCCCCCCCN(c1c([O-])[c+](N(CCCCCCCC)C2CC(C)(C)NC(C)(C)C2)[c+]1[O-])C1CC(C)(C)NC(C)(C)C1 | 171 to 175 °C
O=C1C(=O)c2ccccc2C2=C1SCC(CN1CCC(CO)CC1)O2 (stereo not drawn) | 200 to 202 °C
CCCC(N)CC(=O)O (stereo not drawn) | 203 °C
CNC(=O)c1cc(=O)c(-c2ccc(OC)c(OC)c2)co1 | 213 to 215 °C
CCCN(CCC)C1Cc2c[nH]c3ccc(C(=O)C(C)(C)C)c(c23)C1 (stereo not drawn) | 92 °C

---

MOLECULE | melting point
COc1ccc2c(c1F)C(=O)N(Nc1ccncc1)C2=O | 206 to 210 °C
CCC1(O)CC(=O)OCc2c1cc1n(c2=O)Cc2c-1nc1ccccc1c2-c1ccccc1 (stereo unspecified) | > 250 °C
COC(=O)Nc1nc(C)c(-c2nc3ccccc3c(=O)n2-c2ccc(C(C)=O)cc2)s1 | 232 to 234 °C
Cc1nc(-c2ccc(Cl)cc2)n[nH]1 | 173 to 175 °C
Cc1cccc2c1C=Cc1ccccc1C2O (stereo unspecified) | 114 to 116 °C
CON=C(c1ccc(OC(C)(C)C(=O)O)cc1)c1cccs1 | 168 °C

---

// values below are reported melting point
PROPERTY: melting point

COMPOUND | MEASUREMENT
CCOC(=O)c1cnc2ccc3nc(Cl)sc3c2c1O | > 300 °C
O=C1NC(=O)c2cc(Nc3ccc(F)cc3)c(Nc3ccc(F)cc3)cc21 | > 220 °C
CCCOc1ncc(C#C[Si](C)(C)C)cc1-c1nc2c(CC)nn(CCN3CCOCC3)c2c(=O)[nH]1 | 132 to 134 °C
COC(=O)/C=C/C=C(\c1ccc(OC)cc1)c1cccnc1 | 75 to 76 °C
CCCn1c(=O)c2[nH]c(C34CC5CC3CC(C4)C5=O)nc2n(CCC)c1=O | 172 to 174 °C
CCCn1c(=O)c2[nH]c(-c3cc(C)n(CC(=O)Nc4ccc(N(C)C)cc4)n3)nc2n(CCC)c1=O | > 300 °C
CCCCCCC1=CC(O)(C(Br)Br)N(c2ccccc2)C1=O (configuration not stated) | 43 to 45 °C
COCCn1nc2c(N)nc3ncccc3c2c1CC1CCOCC1 | 230 to 233 °C
COc1cccc2c1C1CN(C)CCN1c1ccccc1C2O (configuration not stated) | 217 °C
Nc1ccc(S(=O)(=O)NCCCN2CCOCC2)cc1 | 96 to 97 °C
COc1ccc([N+](=O)[O-])cc1CO | 121 to 122 °C
OCCCc1cc(Cl)cc2nc(Cc3ccccc3Cl)oc12 | 87 to 89 °C
Oc1ccc2c(c1)C(n1cc[nH]c1=S)CCC2 (configuration not stated) | 195 to 196 °C
Cc1ccc2cccc(OCc3cc(N(C)C(=O)CN4C(=O)c5ccccc5C4=O)ccc3Cl)c2n1 | 120 to 124 °C
COc1ccc(CN2C=CC=C3C2=Nc2cc(C(F)(F)F)ccc2S(=O)(=O)N3C)cc1 | 142 to 143 °C
Cc1ccc(C(=O)n2c3c(c4cc(C)ccc42)CC(C(=O)O)CC3)cc1 (configuration not stated) | 200 to 203 °C
Cc1nc(N)c2ncn(CCOc3ccccc3)c2c1C | 197 to 199 °C
